Hello, the source for this data is the Kinase Knowledgebase extract (Sharma et al. 2016), in case you need it.

biological target: PIK3CG (human) (UniProt P48736)
Sequence (P48736 whole entry, looked up): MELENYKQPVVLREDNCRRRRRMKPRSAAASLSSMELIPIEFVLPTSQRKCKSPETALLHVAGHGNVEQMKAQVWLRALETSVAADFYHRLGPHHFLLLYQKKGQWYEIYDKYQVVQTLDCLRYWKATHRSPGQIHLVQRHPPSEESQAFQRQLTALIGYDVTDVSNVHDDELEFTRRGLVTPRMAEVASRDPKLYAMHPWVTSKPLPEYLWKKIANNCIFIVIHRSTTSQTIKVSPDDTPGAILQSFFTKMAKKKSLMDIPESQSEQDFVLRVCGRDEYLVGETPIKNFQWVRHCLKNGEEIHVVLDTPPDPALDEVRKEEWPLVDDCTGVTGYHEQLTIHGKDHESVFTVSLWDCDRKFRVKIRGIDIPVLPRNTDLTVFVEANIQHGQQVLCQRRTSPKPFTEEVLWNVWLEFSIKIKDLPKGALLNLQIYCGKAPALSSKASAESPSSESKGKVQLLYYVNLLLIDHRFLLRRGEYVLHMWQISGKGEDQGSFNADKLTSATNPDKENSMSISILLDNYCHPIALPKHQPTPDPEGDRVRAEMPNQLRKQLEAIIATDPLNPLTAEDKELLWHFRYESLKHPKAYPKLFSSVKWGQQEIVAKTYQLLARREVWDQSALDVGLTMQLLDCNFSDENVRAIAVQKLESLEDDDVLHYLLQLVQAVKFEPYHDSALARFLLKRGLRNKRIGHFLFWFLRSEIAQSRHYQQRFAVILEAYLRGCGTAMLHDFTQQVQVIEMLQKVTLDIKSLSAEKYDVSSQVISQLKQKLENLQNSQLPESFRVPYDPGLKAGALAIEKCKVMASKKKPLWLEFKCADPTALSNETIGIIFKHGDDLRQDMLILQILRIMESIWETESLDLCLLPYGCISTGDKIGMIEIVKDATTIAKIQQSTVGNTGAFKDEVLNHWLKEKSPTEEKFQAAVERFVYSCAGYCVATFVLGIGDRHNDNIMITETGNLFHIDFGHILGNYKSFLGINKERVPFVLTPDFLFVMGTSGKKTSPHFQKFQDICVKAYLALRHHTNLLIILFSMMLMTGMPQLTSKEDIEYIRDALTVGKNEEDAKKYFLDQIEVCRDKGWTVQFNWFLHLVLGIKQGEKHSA
measured_parameter: IC50 (µM)
I only need the number, in µM, no unit after it.

## Task # returns recorded IC50 (system: PIK3CG (human) (UniProt P48736)) for CC(=O)Nc1cccc(-c2nc(N3CCOCC3)c3oc4ncccc4c3n2)c1
## Result 9.07
